Each entry below lists one item and its recorded pIC50 value.
# Test system: MOLT-3
# method-notes: Cytotoxicity against Homo sapiens (human) MOLT3 cells assessed as inhibition of cell growth after 3 days by crystal violet staining
# Type: functional, cell-based
# condition: MOLT-3, 72 h
pIC50: −log10 of the molar value.
property-measured: pIC50

INSERT INTO results (chemical_smiles, property_measured, modifier_sign, readout_number) VALUES
  ('O=[N+]([O-])c1ccc(NC(=S)NCCc2ccccn2)cc1', 'pIC50', '=', 4.10),
  ('COc1ccc(CCNC(=S)Nc2ccc(Cl)cc2)cc1OC', 'pIC50', '=', 4.41),
  ('S=C(NCc1cccc(CNC(=S)Nc2ccc(Cl)cc2)c1)Nc1ccc(Cl)cc1', 'pIC50', '=', 5.79),
  ('O=[N+]([O-])c1ccc(NC(S)=NCCc2ccccc2)cc1', 'pIC50', '=', 4.90),
  ('O=C(NCc1ccccn1)Nc1ccc(Cl)cc1', 'pIC50', '=', 3.73),
  ('O=C(NCCc1ccccc1)Nc1ccc(Cl)cc1', 'pIC50', '<', 3.74),
  ('S=C(NCCc1ccccn1)Nc1ccc(Cl)cc1', 'pIC50', '=', 3.92),
  ('COc1ccc(CCNC(=S)Nc2ccc([N+](=O)[O-])cc2)cc1OC', 'pIC50', '=', 4.66);
